System: A549;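 note: antiproliferative effect read out by MTT assay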
assay_name: cells
Assay type: functional, cell-based
stated_conditions: Homo sapiens, A549, 72 h
Description: Antiproliferative activity against human A549 cells after 72 hrs by MTT assay
endpoint_name: IC50

[[record]]
compound = "Cn1cc(-c2cnc3ncnc(NCc4cccc([N+](=O)[O-])c4)c3c2)cn1"
system_tested = "A549"
result = "> 100 µM"

[[record]]
compound = "CC(Nc1ncnc2ncc(-c3cnn(C)c3)cc12)c1c(Cl)ccc(F)c1Cl (stereo not drawn)"
system_tested = "A549"
result = "> 100 µM"


# ---- query compound ----
Task item: # input compound: Cn1cc(-c2ccc3ncnc(Nc4ccc(F)c(Cl)c4)c3c2)cn1 ; wanted: its IC50
Reply: > 100 µM
